Reference source: PubChem BioAssay (NCI)

System: OVCAR-8 ovarian
Assay: NCI-60 one-dose screen, 48 h
Conditions: 10 µM unless noted
The panel holds about 83,000 compounds, 20% with a hit somewhere; the sample as a whole holds those more often. Active and inactive are the calls of the source. Rule for the calls: active = growth percent below 10; inactive = the rest.
Outcome (select one): active, inactive

Worked examples follow.
{"columns": ["Molecule", "Target System", "Assigned Category"],
 "data": [
  ["COc1ccc(C(O)c2cc3c(N)c(C(=O)Nc4cccc(OC)c4)sc3nc2C)cc1 (configuration not stated)", "OVCAR-8 ovarian", "active"],
  ["CCc1c(Nc2ccc(C)cc2)[nH]c(N)nc1=S", "OVCAR-8 ovarian", "inactive"],
  ["COc1ccc2c(Nc3ccc(NS(C)(=O)=O)cc3)c3ccccc3nc2c1", "OVCAR-8 ovarian", "active"],
  ["CN1CCN(C(=O)[C@]2(C)CC[C@]3(C)CC[C@]4(C)C(=CC(=O)[C@@H]5[C@@]6(C)CCC(=O)NC(C)(C)[C@@H]6CC[C@]54C)[C@@H]3C2)CC1", "OVCAR-8 ovarian", "inactive"],
  ["CN(C)CCCn1c2c(c3ccc(-c4ccn[nH]4)cc3c1=O)C(=O)c1ccccc1-2", "OVCAR-8 ovarian", "inactive"],
  ["CC(=O)c1cc2c(N)c(C(=O)Nc3cncc4ccccc34)sc2nc1C", "OVCAR-8 ovarian", "inactive"]
]}

Turning now to a further molecule:
Outcome? `CC[C@@]12C=CCN3CC[C@]4(c5cc(NC(=O)COc6cc(OCC(=O)Nc7cc8c(cc7OC)N(C)[C@H]7[C@@](O)(C(=O)OC)[C@H](OC(C)=O)[C@]9(CC)C=CCN%10CC[C@]87[C@@H]%109)cc7oc(-c8ccccc8)cc(=O)c67)c(OC)cc5N(C)[C@@H]4[C@](O)(C(=O)OC)[C@H]1OC(C)=O)[C@H]32`
inactive

---

Test system: T-47D breast
Assay: NCI-60 one-dose screen, 48 h
Conditions: 10 µM unless noted
About 83,000 compounds went through this panel and 20% of them were active in at least one assay; those are over-represented in the sample as a whole. Active and inactive are the calls of the source. How the source made its calls: active means growth percent below 10; inactive means the rest.
Outcome (select one): yes (1) (active), no (0) (inactive)

Worked examples follow.
{"columns": ["Compound", "Assigned Category"],
 "data": [
  ["CN(C)C(C(N)=O)c1ccc(Cl)cc1 (configuration not stated)", "no (0)"],
  ["O=C1Nc2c(ccc(Cl)c2Cl)/C1=C/c1ccc(O)cc1", "no (0)"],
  ["CC[N+](CC)(CCCC(C)[N+]1(Cc2ccccc2)C(C)=CC=C1C)Cc1ccccc1 (configuration not stated)", "no (0)"],
  ["COc1ccc(-n2cc(-c3cc(OC)c(OC)c(OC)c3)n(C(C)=O)c2=O)cc1", "no (0)"],
  ["COc1nccnn1", "no (0)"],
  ["c1cnc2nc3c(cc2c1)oc1ccccc13", "no (0)"],
  ["Fc1cc(C2=NNC(c3ccc[nH]3)C2)ccc1-n1ccc(C(F)(F)F)n1 (configuration not stated)", "no (0)"],
  ["COc1ccc(CC(C)=C(c2ccc(OCCN(C)C)cc2)c2ccc(OCCN(C)C)cc2)cc1", "no (0)"],
  ["OC(c1ccccc1)c1ccccn1 (configuration not stated)", "no (0)"],
  ["CC1(C)CN(c2cnc(C(=O)Nc3cc(F)cc4cccnc34)cn2)CCN1", "no (0)"]
]}

Outcome? `CCCCCCOc1ccc(/C=N/Nc2cc(C)nc3ccc(Br)cc23)cc1`
yes (1)

Outcome? `CN1CCN(c2cc(F)c(NC3=C(Cl)C(=O)c4ncccc4C3=O)c(F)c2)CC1`
yes (1)
